Catalogue of IC50 readings, one per entry.
Target: human FSH receptor (Homo sapiens, UniProt P23945)
Construct: cotransfected with CRE-luciferase reporter
Sequence (P23945 18-695): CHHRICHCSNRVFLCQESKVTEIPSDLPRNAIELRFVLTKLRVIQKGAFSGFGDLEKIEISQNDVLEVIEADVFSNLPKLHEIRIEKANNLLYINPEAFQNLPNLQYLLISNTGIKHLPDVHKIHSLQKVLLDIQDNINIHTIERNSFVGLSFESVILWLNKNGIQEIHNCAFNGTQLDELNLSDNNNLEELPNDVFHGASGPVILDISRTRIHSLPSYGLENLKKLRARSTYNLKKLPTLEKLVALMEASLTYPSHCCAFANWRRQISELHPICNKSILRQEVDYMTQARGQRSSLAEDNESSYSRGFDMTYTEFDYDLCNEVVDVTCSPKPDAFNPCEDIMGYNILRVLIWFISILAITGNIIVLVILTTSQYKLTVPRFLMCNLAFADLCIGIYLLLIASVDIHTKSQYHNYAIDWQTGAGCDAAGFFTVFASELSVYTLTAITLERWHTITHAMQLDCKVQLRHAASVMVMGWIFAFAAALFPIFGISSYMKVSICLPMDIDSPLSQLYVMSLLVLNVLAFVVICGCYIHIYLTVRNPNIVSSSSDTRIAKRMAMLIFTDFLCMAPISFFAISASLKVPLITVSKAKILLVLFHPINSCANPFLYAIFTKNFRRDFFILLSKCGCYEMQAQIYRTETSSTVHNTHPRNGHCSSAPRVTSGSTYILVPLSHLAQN
Assay: Antagonistic activity of compounds at the human FSH receptor expressed in CHO cells (CRE-luciferase reporter)
Settings: CHO cells stably transfected with human FSH receptor and CRE/luciferase reporter; together with 49 μM recFSH; 4 hours incubation; 1% DMSO; read-out: IC50 (concentration of test compound causing half-maximal inhibition of the maximally attainable inhibition of the luciferase stimulation)

Field: example entries. Status: answers known.
COc1cc2c(c(OC)c1OC)CCn1c-2cc(C(=O)N[C@@H](CO)Cc2c[nH]c3ccccc23)c1-c1cccs1 [Example 61]: < 100 nM
COc1ccc(-c2cc3c(cc2OC)CCn2c-3cc(C(=O)N[C@@H](CO)Cc3c[nH]c4ccccc34)c2-c2cccs2)cn1 [Example 58]: < 100 nM
COc1cc2c(cc1OC(C)C)-c1cc(C(=O)N[C@@H](CO)Cc3c[nH]c4ccccc34)c(-c3ccccc3F)n1CC2 [Example 18]: < 100 nM
COc1cc2c(c(OC)c1OC)CCn1c-2cc(C(=O)N[C@@H](CO)Cc2c[nH]c3ccccc23)c1-c1cccc(F)c1 [Example 62]: < 100 nM
COc1cc2c(cc1C(=O)N1CCOCC1)-c1cc(C(=O)N[C@@H](CO)Cc3c[nH]c4ccccc34)c(-c3cccc(F)c3)n1CC2 [Example 47]: 100 to 1000 nM

Exercise: Please report the measured IC50 for COc1cc2c(cc1C(C)=C(C)C)-c1cc(C(=O)N[C@@H](CO)Cc3c[nH]c4ccccc34)c(-c3cccc(F)c3)n1CC2 [Example 46] tested on human FSH receptor (Homo sapiens, UniProt P23945).
Solution: 100 to 1000 nM
